The entries below are paired with their reported inhibition.
Test: UWB1.289 ovarian carcinoma cell growth inhibition, synergistic combos for chromothripsis tumors, BGB or cisplatin combos (AID 1671456);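 note: cells exposed to compound for four days; 0% = vehicle DMSO and 100% = killing by high DMSO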
Conditions: UWB1.289 ovarian carcinoma cells, measured here: inhibition with cisplatin combination, at 0.05 µM, stronger effect = higher value
assay endpoint: inhibition (%)

> print(dat)
                           structure.string  assay.endpoint  scale.unit  reading
1  O=C1c2c(O)ccc(O)c2C(=O)c2c(NCCNCCO)ccc(NCCNCCO)c21      inhibition           %    -25.8
2  CCn1cc(C(=O)O)c(=O)c2cc(F)c(N3CCNCC3)cc21      inhibition           %    -1.67
3     CC(=O)OCC(CCn1cnc2cnc(N)nc21)COC(C)=O      inhibition           %    -9.39
4                   O=c1[nH]cc(F)c(=O)[nH]1      inhibition           %    -10.5

----------
Test system: F380Y/beta1
Assay: modulators of BK channel variants, profiling panel, selectivity assay, cell-based, U2OS BacMam, thallium flux, beta subunits (AID 1259406);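 note: initial slope of Thallos dye fluorescence rise after thallium is added; log ratio against the mean of 0.3% DMSO vehicle wells on the same plate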
Conditions: at 30 µM
Outcome label depends on log fold change Tl+ flux relative to -0.002: at/above gives rule met, below gives rule not met.

> print(dat)
                            structure.string  discrete.label
 1  CC[C@H](C)C(=O)O[C@H]1C[C@H](O)C=C2C=C[C@H](C)[C@H](CC[C@@H](O)C[C@@H](O)CC(=O)O)[C@H]21    rule not met
 2  C[C@]12CCC(=O)C=C1CC[C@@H]1[C@@H]2[C@@H](O)C[C@@]2(C)[C@H]1CC[C@]2(O)C(=O)CO        rule met
 3          C[C@H](CS)C(=O)N1CCC[C@H]1C(=O)O    rule not met
 4                Cn1c(=O)c2[nH]cnc2n(C)c1=O        rule met
 5                CCN(CC)CCOC(=O)c1ccc(N)cc1    rule not met
 6                         NCCc1ccc(O)c(O)c1        rule met
 7  CCOc1ccc2ccccc2c1C(=O)N[C@@H]1C(=O)N2[C@@H]1SC(C)(C)[C@@H]2C(=O)O    rule not met
 8  CCCCC1=NC2(CCCC2)C(=O)N1Cc1ccc(-c2ccccc2-c2nn[nH]n2)cc1        rule met
 9  CCOC(=O)[C@H](CCc1ccccc1)N[C@H]1CCc2ccccc2N(CC(=O)O)C1=O        rule met
10       CC(=O)CCCCn1c(=O)c2c(ncn2C)n(C)c1=O        rule met

----------
System: R275C/beta4
Test: modulators of BK channel variants, profiling panel, selectivity assay, cell-based, U2OS BacMam, thallium flux, beta subunits (AID 1259406);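 note: initial slope of Thallos dye fluorescence rise after thallium is added; log ratio against the mean of 0.3% DMSO vehicle wells on the same plate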
Conditions: at 30 µM
Activity calls are given as the source filed them.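 The calls were made as follows: active = thallium flux through the channel raised or lowered by more than 3 SD from vehicle-only wells, actives on both sides; inactive = the rest.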
assay endpoint: log fold change Tl+ flux

> print(dat)
                                    molecule       system              reading
 1            CN(C)CCC=C1c2ccccc2CCc2ccccc21  R275C/beta4       0.135 (active)
 2  C[C@]12CCC(=O)C=C1CC[C@@H]1[C@@H]2[C@@H](O)C[C@@]2(C)[C@H]1CC[C@]2(O)C(=O)COC(=O)CCC(=O)O  R275C/beta4   -0.0484 (inactive)
 3  CCCNCC(O)COc1ccccc1C(=O)CCc1ccccc1 (stereo not drawn)  R275C/beta4       0.153 (active)
 4      Clc1ccc2c(c1)C(N1CCNCC1)=Nc1ccccc1O2  R275C/beta4    0.0104 (inactive)
 5  O=C(CCCN1CC=C(n2c(=O)[nH]c3ccccc32)CC1)c1ccc(F)cc1  R275C/beta4   0.00129 (inactive)
 6  COc1c(N2CCNC(C)C2)c(F)cc2c(=O)c(C(=O)O)cn(C3CC3)c12 (stereo not drawn)  R275C/beta4  -0.00176 (inactive)
 7                             O=S(=O)(O)CCS  R275C/beta4    0.0195 (inactive)
 8                           N[C@@H]1CONC1=O  R275C/beta4   0.00356 (inactive)
 9  CC(=O)[C@H]1CC[C@H]2[C@@H]3C[C@H](C)C4=CC(=O)CC[C@]4(C)[C@H]3[C@@H](O)C[C@]12C  R275C/beta4   -0.0699 (inactive)
10  CCCCC1=NC2(CCCC2)C(=O)N1Cc1ccc(-c2ccccc2-c2nn[nH]n2)cc1  R275C/beta4     0.051 (inactive)
11  C[C@@H]1C[C@H]2[C@@H]3CCC4=CC(=O)C=C[C@]4(C)[C@@]3(F)[C@@H](O)C[C@]2(C)[C@@]1(O)C(=O)CO  R275C/beta4    0.0627 (inactive)
12  CC1=C(C(=O)O)N2C(=O)[C@@H](NC(=O)[C@H](N)c3ccccc3)[C@H]2SC1  R275C/beta4   -0.0153 (inactive)
13  C[C@]12CCC(=O)C=C1CC[C@@H]1[C@@H]2[C@@H](O)C[C@@]2(C)[C@H]1CC[C@]2(O)C(=O)CO  R275C/beta4   -0.0399 (inactive)
14  CC[C@H](C)C(=O)O[C@H]1C[C@@H](C)C=C2C=C[C@H](C)[C@H](CC[C@@H]3C[C@@H](O)CC(=O)O3)[C@H]21  R275C/beta4    0.0477 (inactive)
15  CC(CN1c2ccccc2Sc2ccccc21)N(C)C (stereo not drawn)  R275C/beta4    0.0949 (inactive)
16                 CN(C)C(=O)Oc1ccc[n+](C)c1  R275C/beta4   -0.0147 (inactive)
17  CC(C[N+](C)(C)C)OC(N)=O (stereo not drawn)  R275C/beta4     0.043 (inactive)
18  CCCc1nc2c(C)cc(-c3nc4ccccc4n3C)cc2n1Cc1ccc(-c2ccccc2C(=O)O)cc1  R275C/beta4     0.033 (inactive)
19  Cc1cccc(CN2CCN(C(c3ccccc3)c3ccc(Cl)cc3)CC2)c1 (stereo not drawn)  R275C/beta4    -0.091 (inactive)
20          CN(C)CCCN1c2ccccc2Sc2ccc(Cl)cc21  R275C/beta4       0.154 (active)
21         CCN(CC)CCOC(=O)C1(C2CCCCC2)CCCCC1  R275C/beta4    0.0991 (inactive)
22                   O=c1[nH]cc(F)c(=O)[nH]1  R275C/beta4   -0.0876 (inactive)
23  CC[C@H](C)C(=O)O[C@H]1C[C@H](O)C=C2C=C[C@H](C)[C@H](CC[C@@H](O)C[C@@H](O)CC(=O)O)[C@H]21  R275C/beta4   -0.0312 (inactive)
24        OC(Cn1cncn1)(Cn1cncn1)c1ccc(F)cc1F  R275C/beta4    0.0436 (inactive)
25                CCN(CC)CCOC(=O)c1ccc(N)cc1  R275C/beta4   -0.0586 (inactive)
26           Nc1ccc(S(=O)(=O)c2ccc(N)cc2)cc1  R275C/beta4   -0.0181 (inactive)
27                COc1ccc2cc(CCC(C)=O)ccc2c1  R275C/beta4      -0.216 (active)
28  O=C(C1CCCCC1)N1CC(=O)N2CCc3ccccc3C2C1 (stereo not drawn)  R275C/beta4    0.0526 (inactive)
29                           NCC(=O)CCC(=O)O  R275C/beta4   -0.0959 (inactive)
30  COc1ccccc1OCCNCC(O)COc1cccc2[nH]c3ccccc3c12 (stereo not drawn)  R275C/beta4       0.216 (active)
31  Cc1ccc(O)c([C@H](CCN(C(C)C)C(C)C)c2ccccc2)c1  R275C/beta4    0.0668 (inactive)
32  COc1ccc([C@@H]2Sc3ccccc3N(CCN(C)C)C(=O)[C@@H]2OC(C)=O)cc1  R275C/beta4     0.104 (inactive)
33             CCc1nc(N)nc(N)c1-c1ccc(Cl)cc1  R275C/beta4  -0.00455 (inactive)
34       CCS(=O)(=O)CCn1c([N+](=O)[O-])cnc1C  R275C/beta4   -0.0453 (inactive)
35      C=C(CC)C(=O)c1ccc(OCC(=O)O)c(Cl)c1Cl  R275C/beta4   -0.0645 (inactive)
36  CCOC(=O)[C@H](CCc1ccccc1)N[C@H]1CCc2ccccc2N(CC(=O)O)C1=O  R275C/beta4   -0.0252 (inactive)
37              NC(=O)N1c2ccccc2C=Cc2ccccc21  R275C/beta4   -0.0824 (inactive)
38        CCCN(CCC)S(=O)(=O)c1ccc(C(=O)O)cc1  R275C/beta4   -0.0261 (inactive)
39         O=C1NC(=O)C(c2ccccc2)(c2ccccc2)N1  R275C/beta4   -0.0221 (inactive)
40  CCc1cccc2c3c([nH]c12)C(CC)(CC(=O)O)OCC3 (stereo not drawn)  R275C/beta4    0.0823 (inactive)
41     CC(=O)OCC(CCn1cnc2cnc(N)nc21)COC(C)=O  R275C/beta4    0.0276 (inactive)
42  C[C@]12CCC(=O)C=C1CC[C@@H]1[C@@H]2C(=O)C[C@@]2(C)[C@H]1CC[C@]2(O)C(=O)CO  R275C/beta4    0.0193 (inactive)
43                CC(=O)Nc1nnc(S(N)(=O)=O)s1  R275C/beta4   0.00614 (inactive)
